pKi, Casein Kinase Iε (Homo sapiens), per-entry values.
Scale: negative log10 of molar concentration, which is what pKi denotes.

Past entries and their recorded results:
# structure.smiles, system.under.test, pKi
data = [
    ("Cc1cccc(Sc2c(C(N)=O)[nH]c3sccc23)c1", "Casein Kinase Iε (Homo sapiens)", 7.15),
    ("NC(=O)c1[nH]c2ccsc2c1Sc1ccccc1C(F)(F)F", "Casein Kinase Iε (Homo sapiens)", 6.32),
    ("NC(=O)c1[nH]c2ccsc2c1Sc1ccccc1N", "Casein Kinase Iε (Homo sapiens)", 6.96),
    ("Cc1nc2c(Sc3cccc(F)c3)c(C(N)=O)[nH]c2s1", "Casein Kinase Iε (Homo sapiens)", 7.80),
    ("NC(=O)c1[nH]c2sccc2c1Sc1ccccc1", "Casein Kinase Iε (Homo sapiens)", 6.09),
    ("COc1cccc(Sc2c(C(N)=O)[nH]c3scnc23)c1", "Casein Kinase Iε (Homo sapiens)", 7.66),
    ("NC(=O)c1[nH]c2sccc2c1Sc1cccc(Cl)c1", "Casein Kinase Iε (Homo sapiens)", 6.95),
    ("Cc1nc2c(Sc3cccc(Cl)c3)c(C(N)=O)[nH]c2s1", "Casein Kinase Iε (Homo sapiens)", 8.02),
    ("NC(=O)c1[nH]c2ncsc2c1Sc1ccccn1", "Casein Kinase Iε (Homo sapiens)", 5.76),
    ("NC(=O)c1[nH]c2scnc2c1Sc1ccccc1", "Casein Kinase Iε (Homo sapiens)", 7.33),
]

Request the reported pKi associated with `NC(=O)c1[nH]c2sc(Sc3ccccc3)nc2c1Sc1ccccc1`
6.48

Request the reported pKi associated with `NC(=O)c1[nH]c2ncsc2c1Sc1ccccc1`
5.34

Request the reported pKi associated with `NC(=O)c1[nH]c2ccsc2c1Sc1cccc(Br)c1`
7.10

Request the reported pKi associated with `NC(=O)c1[nH]c2sccc2c1Sc1cccc(Br)c1`
7.51

Request the reported pKi associated with `Cc1cccc(Sc2c(C(N)=O)[nH]c3ccsc23)c1`
6.93

Request the reported pKi associated with `NC(=O)c1[nH]c2ncsc2c1Sc1cccc(F)c1`
5.69

Request the reported pKi associated with `COc1cccc(Sc2c(C(N)=O)[nH]c3sccc23)c1`
7.61

The reported numbers originate from patent US7652046B2.
